target: ROCK2 (Homo sapiens (Human))
Sequence (O75116 whole entry, species assumed): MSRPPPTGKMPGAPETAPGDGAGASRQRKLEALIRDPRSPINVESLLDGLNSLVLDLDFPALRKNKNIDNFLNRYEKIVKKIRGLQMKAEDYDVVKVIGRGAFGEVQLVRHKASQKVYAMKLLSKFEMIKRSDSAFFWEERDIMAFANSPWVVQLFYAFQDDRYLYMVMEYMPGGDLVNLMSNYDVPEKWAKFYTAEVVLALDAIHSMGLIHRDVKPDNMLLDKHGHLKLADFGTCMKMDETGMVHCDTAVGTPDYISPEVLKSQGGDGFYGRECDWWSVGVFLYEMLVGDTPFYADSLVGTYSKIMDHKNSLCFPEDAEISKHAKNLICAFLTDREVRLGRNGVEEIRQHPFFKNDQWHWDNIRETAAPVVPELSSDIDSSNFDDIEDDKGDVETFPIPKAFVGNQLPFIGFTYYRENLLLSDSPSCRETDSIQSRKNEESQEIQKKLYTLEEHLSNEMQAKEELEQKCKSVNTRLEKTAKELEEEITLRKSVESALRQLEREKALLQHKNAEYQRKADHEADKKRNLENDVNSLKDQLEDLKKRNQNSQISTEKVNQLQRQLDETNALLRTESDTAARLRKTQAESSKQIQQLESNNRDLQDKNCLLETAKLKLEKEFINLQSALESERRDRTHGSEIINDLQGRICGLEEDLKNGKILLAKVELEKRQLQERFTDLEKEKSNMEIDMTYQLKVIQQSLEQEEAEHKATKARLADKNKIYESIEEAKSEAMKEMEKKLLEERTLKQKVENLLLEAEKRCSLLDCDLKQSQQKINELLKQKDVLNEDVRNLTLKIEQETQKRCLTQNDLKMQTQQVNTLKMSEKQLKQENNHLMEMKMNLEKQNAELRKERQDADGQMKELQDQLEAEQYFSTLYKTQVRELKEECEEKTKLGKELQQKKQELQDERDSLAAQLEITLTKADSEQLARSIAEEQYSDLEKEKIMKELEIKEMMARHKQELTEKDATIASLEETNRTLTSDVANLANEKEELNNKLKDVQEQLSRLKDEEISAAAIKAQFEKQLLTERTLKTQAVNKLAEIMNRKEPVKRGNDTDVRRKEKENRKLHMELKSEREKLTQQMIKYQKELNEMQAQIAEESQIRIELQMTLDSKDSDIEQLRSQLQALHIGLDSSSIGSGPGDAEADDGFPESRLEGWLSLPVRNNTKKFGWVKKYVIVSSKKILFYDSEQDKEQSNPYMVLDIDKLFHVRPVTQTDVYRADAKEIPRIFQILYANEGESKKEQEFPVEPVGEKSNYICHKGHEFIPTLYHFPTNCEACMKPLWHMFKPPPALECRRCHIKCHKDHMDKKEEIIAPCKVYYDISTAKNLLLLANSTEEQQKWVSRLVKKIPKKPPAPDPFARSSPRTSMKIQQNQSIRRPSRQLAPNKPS
pIC50: −log10 of the molar value.
value kind: pIC50

- molecule: "O=C(NC1CCCC1)c1cccc([C@@H](CO)NC(=O)c2ccc(-c3cn[nH]c3)cc2)c1"
  target of assay: "ROCK2 (Homo sapiens (Human))"
  pIC50: 8.73
- molecule: "CN(C)C1(CNC(=O)c2cccc([C@@H](CO)NC(=O)c3ccc(-c4ccncc4)cc3)c2)CCCC1"
  target of assay: "ROCK2 (Homo sapiens (Human))"
  pIC50: 9.30
- molecule: "CCN(CC)C1CCC(NC(=O)c2cccc([C@@H](CO)NC(=O)c3ccc(-c4ccncc4)cc3)c2)CC1 (stereo partly drawn)"
  target of assay: "ROCK2 (Homo sapiens (Human))"
  pIC50: 8.92

[P] CN1CCc2ccc(NC(=O)c3cccc(CNC(=O)c4ccc(-c5ccncc5)cc4)c3)cc2C1 [Compound B, reference compound]
[Q] O=C(NCC1CCN(C2CC2)CC1)c1cccc([C@@H](CO)NC(=O)c2ccc(-c3ccncc3)cc2)c1
[R] C[C@@H](NC(=O)c1ccc(-c2cn[nH]c2)cc1)c1cccc(C(=O)NC2CCCC2)c1
[S] CN(C(=O)c1ccc(-c2ccncc2)cc1)[C@H](CO)c1cccc(C(=O)NC2CCCC2)c1
Query: Put the molecules in ascending order of pIC50. Answer format: list of labels, ordered as asked.
Reply: S, P, R, Q

[A] C[C@@H](NC(=O)c1ccc(-c2ccncc2)cc1)c1cccc(C(=O)NCC2CCN(C)CC2)c1
[B] CN1CCc2ccc(NC(=O)c3cccc(C(CO)NC(=O)c4ccc(-c5ccncc5)cc4)c3)cc2C1 (stereo not drawn)
Query: // returns A or B , whichever has the lower pIC50 Respond with the label that goes with your answer.
Reply: B
(B: 8.55, A: 9.52)

[P] O=C(NCC1CCCC1)c1cccc([C@@H](CO)NC(=O)c2ccc(-c3ccncc3)cc2)c1
[Q] CN1Cc2ccc(NC(=O)c3cccc([C@@H](CO)NC(=O)c4ccc(-c5ccncc5)cc4)c3)cc2C1
Query: Between the entries labelled P and Q , which has a larger pIC50 value on record? Respond with the label that goes with your answer.
Reply: P
(P: 9.14, Q: 8.89)

[1] CC(C)NC(=O)c1cccc(CNC(=O)c2ccc(-c3ccncc3)cc2)c1
[2] CN1CCc2ccc(NC(=O)c3cccc([C@@H](CO)NC(=O)c4ccc(-c5cccnc5)cc4)c3)cc2C1
[3] COc1cc(-c2cn[nH]c2)ccc1C(=O)N[C@H](CO)c1cccc(C(=O)NC2CCCC2)c1
Query: Put the molecules in ascending order of pIC50. Answer format: list of labels, ordered as asked.
Reply: 2, 1, 3

[A] COCC1(NC(=O)c2cccc([C@@H](CO)NC(=O)c3ccc(-c4ccncc4)cc3)c2)CCCC1
[B] COC(=O)N1CCC(NC(=O)c2cccc([C@@H](CO)NC(=O)c3ccc(-c4ccncc4)cc3)c2)CC1
[C] C[C@@H](NC(=O)c1ccc(-c2ccncc2)cc1)c1cccc(C(=O)Nc2ccc3c(c2)CN(C)CC3)c1
[D] CC(C)NC(=O)c1cccc([C@@H](CO)NC(=O)c2ccc(-c3ccncc3)cc2)c1
[E] CN(C)CC1(NC(=O)c2cccc([C@@H](CO)NC(=O)c3ccc(-c4ccncc4)cc3)c2)CCCC1
Query: Put the molecules in ascending order of pIC50. Answer format: list of labels, ordered as asked.
Reply: E, A, D, C, B
(E: 7.57, A: 8.04, D: 8.55, C: 8.92, B: 9.19)

[A] COCCOc1cccc(CNC(=O)c2cccc([C@@H](CO)NC(=O)c3ccc(-c4ccncc4)cc3)c2)c1
[B] O=C(Nc1ccccc1)c1cccc([C@@H](CO)NC(=O)c2ccc(-c3ccncc3)cc2)c1
[C] CN1CCc2ccc(NC(=O)c3cccc([C@@H](CO)NC(=O)c4cccc(-c5ccncc5)c4)c3)cc2C1
[D] CN1CCC(CNC(=O)c2cccc([C@@H](CO)NC(=O)c3ccc(-c4ccncc4)cc3)c2)CC1
Query: Put the molecules in ascending order of pIC50. Answer format: list of labels, ordered as asked.
Reply: C, B, A, D
(C: 8.19, B: 8.77, A: 9.16, D: 9.52)

[1] CN(C)Cc1ccc(CNC(=O)c2cccc([C@@H](CO)NC(=O)c3ccc(-c4ccncc4)cc3)c2)cc1
[2] O=C(NCc1cccc(F)c1)c1cccc([C@@H](CO)NC(=O)c2ccc(-c3ccncc3)cc2)c1
[3] CN(C(=O)c1cccc([C@@H](CO)NC(=O)c2ccc(-c3ccncc3)cc2)c1)C1CC1
[4] O=C(NC1CCCC1)c1cccc([C@@H](CO)NC(=O)c2ccc(-c3ccncc3)cn2)c1
Query: Put the molecules in ascending order of pIC50. Answer format: list of labels, ordered as asked.
Reply: 3, 4, 1, 2

[a] CCOc1cc(-c2cn[nH]c2)ccc1C(=O)N[C@H](C)c1cccc(C(=O)NC2CCCC2)c1
[b] O=C(NC1CCCC1)c1cccc([C@@H](CO)NC(=O)c2ccc(-c3ccncc3)cc2)c1
Query: Between the entries labelled a and b , which has a larger pIC50 value on record? Respond with the label that goes with your answer.
Reply: a
(a: 9.28, b: 9.06)
